- measured_target: IDH1 R132H (Homo sapiens, UniProt O75874, R132H)
- Sequence (O75874 whole entry R132H): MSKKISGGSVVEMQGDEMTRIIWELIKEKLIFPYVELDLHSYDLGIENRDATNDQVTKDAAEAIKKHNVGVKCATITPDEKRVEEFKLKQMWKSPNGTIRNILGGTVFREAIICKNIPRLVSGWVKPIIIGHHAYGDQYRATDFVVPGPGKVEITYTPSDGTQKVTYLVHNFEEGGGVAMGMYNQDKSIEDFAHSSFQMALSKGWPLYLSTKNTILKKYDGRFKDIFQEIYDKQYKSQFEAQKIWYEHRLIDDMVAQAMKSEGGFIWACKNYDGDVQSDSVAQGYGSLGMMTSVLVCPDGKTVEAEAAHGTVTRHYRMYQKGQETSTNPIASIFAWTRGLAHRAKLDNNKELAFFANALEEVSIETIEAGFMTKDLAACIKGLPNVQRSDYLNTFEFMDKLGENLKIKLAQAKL
- assay: IDH1 R132H enzymatic assay (NADPH depletion coupled to diaphorase/resazurin)
- Assay type: biochemical
- condition_context: IDH1 R132H enzymatic inhibition, IC50 class
pIC50: −log10 of the molar value.
observable: pIC50

Example cases with answers are listed next.
CCOc1ccc(C)cc1-n1c(C=C(C)C)c(C(=O)N2CCNCC2)cc(-c2nc(-c3ccc(C(F)F)cc3)cs2)c1=O [Compound 386]; > 6.52
CC1(C)CC(=O)c2cc(-c3nc(-c4ccc(Cl)cc4)cs3)c(=O)n(-c3ccccc3C(=O)O)c2C1 [Compound 227]; 4.70 to 5.30
CCc1ccc(F)cc1-n1c(C=C(C)C)c(C(=O)N2CCNCC2)cc(-c2nc(-c3ccc(Cl)cc3)cs2)c1=O [Compound 352]; > 6.52
COc1ccc(OC)c(-n2c(=O)c(-c3nc(-c4ccc(Cl)cc4)cs3)cc3c(O)cccc32)c1 [Compound 68]; < 4.70

Value of pIC50 reported for the compound CC(C)=Cc1c(C(=O)N2CCNCC2)cc(-c2nc(-c3ccc(Cl)cc3)cs2)c(=O)n1-c1ccccc1C(C)(C)C [Compound 372] is > 6.52

Value of pIC50 reported for the compound CCc1cccc(CC)c1-n1c(C(C)C)c(C(=O)N2CCN[C@@H](C(=O)O)C2)cc(-c2nc(-c3ccc(Cl)cc3)cs2)c1=O [Compound 28] is > 6.52

Value of pIC50 reported for the compound CCOc1ccc(Cl)cc1-n1c(CC(C)C)c(C(=O)N2CCNCC2)cc(-c2nc(-c3ccc(C(F)F)cc3)cs2)c1=O [Compound 687] is 6.00 to 6.52

Value of pIC50 reported for the compound COc1ccc(OC)c(-n2c3c(cc(-c4nc(-c5ccc(Cl)cc5)cs4)c2=O)CCC(C)(C)C3)c1 [Compound 73] is 5.30 to 6.00

Measured values drawn from patent US10703746B2 for this set.
